System: Measles morbillivirus
Assay: Antiviral activity against Measles virus variant in Vero-CD150w cells by cytopathicity assay
Format: functional, organism-based
This listing pairs molecules with measured IC50.

A selection of reference data follows.
{"RECORD SMILES": "Nc1ccc2oc(Cc3ccccc3)nc2c1", "IC50": "> 150 µM"}
{"RECORD SMILES": "Nc1cc(NC(=O)Cc2ccccc2)cc([N+](=O)[O-])c1", "IC50": "> 150 µM"}
{"RECORD SMILES": "Nc1cccc(NC(=O)Cc2ccccc2)c1", "IC50": "> 150 µM"}
{"RECORD SMILES": "O=C(Cc1ccccc1)Nc1cc(C(=O)O)cc([N+](=O)[O-])c1", "IC50": "> 150 µM"}
{"RECORD SMILES": "NC(=O)c1cc(NC(=O)Cc2ccccc2)cc([N+](=O)[O-])c1", "IC50": "> 75 µM"}
{"RECORD SMILES": "N#Cc1cccc(NC(=O)Cc2ccccc2)c1", "IC50": "> 150 µM"}

For Measles morbillivirus, give IC50 of the listed molecule: NC(=O)c1ccc([N+](=O)[O-])cc1NC(=O)Cc1ccccc1
> 150 µM

State, for Measles morbillivirus, measured IC50 of the molecule listed here: O=C(Cc1ccccc1)Nc1cc(CO)cc([N+](=O)[O-])c1
> 150 µM

* * *

Tested on: Measles morbillivirus
Assay: Antiviral activity against Measles virus variant in Vero-CD150w cells by cytopathicity assay
Format: functional, organism-based
pIC50: −log10 of the molar value.
Entries and their measured pIC50 follow.

Example entries and their recorded answers appear below.
{"RECORD SMILES": "O=C(Cc1ccccc1)Nc1ccccc1O", "pIC50": "< 3.82"}
{"RECORD SMILES": "O=C(Cc1ccccc1)Nc1cc(NO)cc([N+](=O)[O-])c1", "pIC50": "< 4.12"}
{"RECORD SMILES": "COC(=O)c1cc(NC(=O)Cc2ccccc2)cc([N+](=O)[O-])c1", "pIC50": "< 3.82"}

# evaluate next
Indicate the recorded pIC50 value for this molecule: O=C(Cc1ccccc1)Nc1cc([N+](=O)[O-])cc([N+](=O)[O-])c1
< 3.82
